Consider the following compounds; for each one, report its normalised response.
test system: MDA-MB-453; experiment: normalised response (% of control), CellTox Green; higher = less cell death (100 = DMSO, 0 = benzethonium chloride kill control); settings: incubation time: 72 h
One number for each entry, in %.

CCC1=C[C@@H]2CN(C1)Cc1c([nH]c3ccccc13)[C@@](C(=O)OC)(c1cc3c(cc1OC)N(C)[C@H]1[C@@](O)(C(=O)OC)[C@H](OC(C)=O)[C@]4(CC)C=CCN5CC[C@]31[C@@H]54)C2 [Vinorelbine] (10000 nM)	90.3

I would be grateful if you could provide normalised response for each of the following entries.
1. CN[C@@H]1C[C@H]2O[C@@](C)([C@@H]1OC)n1c3ccccc3c3c4c(c5c6ccccc6n2c5c31)C(=O)N[C@H]4O [UCN-01] (100 nM)
2. C=C(c1ccc(C(=O)O)cc1)c1cc2c(cc1C)C(C)(C)CCC2(C)C [Bexarotene] (100 nM)
3. Cc1ccc(C(=O)Nc2ccc(CN3CCN(C)CC3)c(C(F)(F)F)c2)cc1C#Cc1cnc2cccnn12 [Ponatinib] (1000 nM)
4. Clc1ccc(Nc2nnc(Cc3ccncc3)c3ccccc23)cc1 [Vatalanib] (1000 nM)
5. COc1cc2nccc(Oc3ccc(NC(=O)C4(C(=O)Nc5ccc(F)cc5)CC4)cc3)c2cc1OC [Cabozantinib] (10 nM)
6. O=C(O)c1ccc(-c2c[nH]c3ncc(-c4ccccc4)cc23)cc1C1CCCC1 (1000 nM)
7. O=C(O)c1ccc(-c2c[nH]c3ncc(-c4ccccc4)cc23)cc1C1CCCC1 (100 nM)

Response:
1. 90.4
2. 96.1
3. 103
4. 104
5. 101
6. 96.7
7. 95.8

Take each entry in turn and give its normalised response.
1. Cn1c(CCCC(=O)O)nc2cc(N(CCCl)CCCl)ccc21 [Bendamustine] (100 nM)
2. C#Cc1cccc(Nc2ncnc3cc(OCCOC)c(OCCOC)cc23)c1 [Erlotinib] (10000 nM)
3. Cc1ccc(C(=O)Nc2ccc(CN3CCN(C)CC3)c(C(F)(F)F)c2)cc1C#Cc1cnc2cccnn12 [Ponatinib] (10 nM)
4. C=C(c1ccc(C(=O)O)cc1)c1cc2c(cc1C)C(C)(C)CCC2(C)C [Bexarotene] (1000 nM)
5. N#CCNC(=O)c1ccc(-c2ccnc(Nc3ccc(N4CCOCC4)cc3)n2)cc1 [Momelotinib] (10000 nM)
6. Cc1ccc(C(=O)N(CCCN)[C@@H](c2oc3cc(Cl)ccc3c(=O)c2Cc2ccccc2)C(C)C)cc1 (10 nM)
7. CNCc1ccc(-c2[nH]c3cc(F)cc4c3c2CCNC4=O)cc1 [Rucaparib] (100 nM)

Response:
1: 105; 2: 95.1; 3: 105; 4: 84.4; 5: 70.6; 6: 102; 7: 102
